- Target system: VHL complex (VHL, Elongin B, Elongin C, Cul2, Rbx1) (Homo sapiens (Human), UniProt P40337)
- Sequence (P40337 whole entry, looked up): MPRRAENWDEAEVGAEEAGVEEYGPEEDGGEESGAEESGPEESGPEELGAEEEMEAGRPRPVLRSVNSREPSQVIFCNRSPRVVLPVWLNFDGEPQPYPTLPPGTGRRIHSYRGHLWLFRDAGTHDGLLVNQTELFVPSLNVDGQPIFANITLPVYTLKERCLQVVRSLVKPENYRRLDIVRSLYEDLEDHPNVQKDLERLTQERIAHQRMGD
- Sequence (Q15370 whole entry partner, looked up): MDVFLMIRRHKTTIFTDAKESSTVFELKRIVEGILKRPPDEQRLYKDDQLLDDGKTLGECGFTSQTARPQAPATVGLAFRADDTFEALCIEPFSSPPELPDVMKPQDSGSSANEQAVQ
- Sequence (Q15369 whole entry partner, looked up): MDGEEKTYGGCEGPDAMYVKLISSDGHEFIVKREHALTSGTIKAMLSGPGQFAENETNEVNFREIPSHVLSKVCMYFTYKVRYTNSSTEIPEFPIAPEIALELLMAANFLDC
- Sequence (Q13617 whole entry partner, looked up): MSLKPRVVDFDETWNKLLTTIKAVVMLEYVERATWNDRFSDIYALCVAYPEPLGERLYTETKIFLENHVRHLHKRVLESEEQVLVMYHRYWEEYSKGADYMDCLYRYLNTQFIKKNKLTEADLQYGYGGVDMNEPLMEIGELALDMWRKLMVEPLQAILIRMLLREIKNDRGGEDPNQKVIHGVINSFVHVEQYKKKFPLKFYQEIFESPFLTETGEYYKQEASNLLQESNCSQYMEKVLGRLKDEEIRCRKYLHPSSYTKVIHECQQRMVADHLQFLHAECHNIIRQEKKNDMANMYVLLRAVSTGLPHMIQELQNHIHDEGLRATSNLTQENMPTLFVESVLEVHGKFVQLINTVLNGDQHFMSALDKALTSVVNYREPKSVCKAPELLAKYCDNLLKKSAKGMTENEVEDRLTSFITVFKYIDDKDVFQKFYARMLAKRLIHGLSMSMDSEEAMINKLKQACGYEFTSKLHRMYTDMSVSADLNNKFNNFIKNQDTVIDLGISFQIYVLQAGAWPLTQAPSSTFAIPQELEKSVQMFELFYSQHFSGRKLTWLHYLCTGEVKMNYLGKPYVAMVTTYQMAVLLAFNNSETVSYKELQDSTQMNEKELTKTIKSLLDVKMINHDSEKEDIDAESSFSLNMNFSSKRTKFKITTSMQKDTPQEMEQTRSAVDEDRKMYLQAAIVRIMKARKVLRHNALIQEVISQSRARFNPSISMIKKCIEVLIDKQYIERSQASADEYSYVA
- Sequence (P62877 whole entry partner, looked up): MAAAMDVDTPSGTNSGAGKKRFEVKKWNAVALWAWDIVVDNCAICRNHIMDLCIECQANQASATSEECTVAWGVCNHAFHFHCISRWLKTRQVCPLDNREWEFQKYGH
- Test details: VHL SPR assay
- Assay type: binding
- Particulars: immobilized VHL complex; read-out: VHL SPR Kd
Reported endpoint: Kd

- Cc1ncsc1-c1ccc(CNC(=O)[C@H]2C[C@H](O)CN2C(=O)[C@@H](C(C)C)N2Cc3ccccc3C2=O)c(OCCOCCOCCOCCOc2ccc(C(=O)Nc3ccc4oc(-c5ccc(=O)n(C)n5)nc4c3)nc2)c1 [Compound 11]: > 0.5 µM
- Cc1ncsc1-c1ccc(CNC(=O)[C@@H]2C[C@@H](O)CN2C(=O)[C@H](C(C)C)N2Cc3ccccc3C2=O)c(OCCOCCOCCOCCOc2ccc(COc3ccc4oc(-c5ccc(=O)n(C)n5)nc4c3)nc2)c1 [Compound 46]: > 0.5 µM
- Cc1ncsc1-c1ccc(CNC(=O)[C@@H]2C[C@@H](O)CN2C(=O)[C@@H](NC(=O)CCOCCOCCOCCOc2ccc(C(=O)Nc3ccc4oc(-c5ccc(=O)n(C)n5)nc4c3)nc2)C(C)(C)C)cc1 [Compound 23]: < 0.1 µM
- COc1ccc(COc2ccc3oc(N4CCN(CCOCCOCCOCC(=O)N[C@H](C(=O)N5C[C@H](O)C[C@H]5C(=O)NCc5ccc(-c6scnc6C)cc5)C(C)(C)C)CC4)nc3c2)nc1 [Compound 55]: 0.1 to 0.5 µM
- Cc1ncsc1-c1ccc(CNC(=O)[C@@H]2C[C@@H](O)CN2C(=O)[C@H](C(C)C)N2Cc3ccccc3C2=O)c(OCCOCCOCCOc2ccc(COc3ccc4oc(-c5ccc(=O)n(C)n5)nc4c3)nc2)c1 [Compound 45]: > 0.5 µM
- Cc1ncsc1-c1ccc(CNC(=O)[C@@H]2C[C@@H](O)CN2C(=O)[C@@H](NC(=O)COCCOCCOCCOCCOc2ccc(COc3ccc4oc(N5CCNCC5)nc4c3)nc2)C(C)(C)C)cc1 [Compound 54]: > 0.5 µM
- CNc1c(-c2cn3c(n2)sc2cc(OCCOCCOCCOCC(=O)N[C@H](C(=O)N4C[C@H](O)C[C@H]4C(=O)NCc4ccc(-c5scnc5C)cc4)C(C)(C)C)ccc23)nc2cc(C#N)ccn12 [Compound 3]: 0.1 to 0.5 µM
- Cc1ncsc1-c1ccc(CNC(=O)[C@@H]2C[C@@H](O)CN2C(=O)[C@@H](NC(=O)CCOCCOc2ccc(C(=O)Nc3ccc4oc(-c5ccc(=O)n(C)n5)nc4c3)nc2)C(C)(C)C)cc1 [Compound 21]: 0.1 to 0.5 µM
- COc1ccc(COc2ccc3oc(N4CCN(CCOCCOCCOCCOCC(=O)N[C@H](C(=O)N5C[C@H](O)C[C@H]5C(=O)NCc5ccc(-c6scnc6C)cc5)C(C)(C)C)CC4)nc3c2)nc1 [Compound 56]: 0.1 to 0.5 µM
- Cc1ncsc1-c1ccc(CNC(=O)[C@@H]2C[C@@H](O)CN2C(=O)[C@H](C(C)C)N2Cc3ccccc3C2=O)c(OCCOCCOCCOCCOc2ccc(C(=O)Nc3ccc4oc(-c5ccc(=O)n(C)n5)nc4c3)nc2)c1 [Compound 20]: 0.1 to 0.5 µM
- Cc1ncsc1-c1ccc(CNC(=O)[C@@H]2C[C@@H](O)CN2C(=O)[C@H](C(C)C)N2Cc3ccccc3C2=O)c(OCCOCCOc2ccc(COc3ccc4oc(-c5ccc(=O)n(C)n5)nc4c3)nc2)c1 [Compound 44]: > 0.5 µM

###

- Target system: pre-formed polyQ46 or Exon1-polyQ46 aggregates (mHTT) (Homo sapiens, UniProt P42858, INS38QQQQQQQQQQQQQQQQQQQQQQQQQ)
- Test details: Q46_RBA radioligand binding assay (displacement of [3H]-radioligand)
Where a name gives a salt, the structure may show the parent alone.
Reported endpoint: IC50

* Cn1nc(-c2nc3cc(NC(=O)c4ccc(OCCOCCOCCOCCNc5cccc6c5C(=O)N(C5CCC(=O)NC5=O)C6=O)cn4)ccc3o2)ccc1=O (stereo not drawn) | < 100 nM
* Cc1ncsc1-c1ccc(CNC(=O)[C@@H]2C[C@@H](O)CN2C(=O)[C@@H](NC(=O)COCCOCCOCCOc2ccc(COc3ccc4oc(N5CCNCC5)nc4c3)nc2)C(C)(C)C)cc1 | > 500 nM
* Cc1ccc2nc(-c3ccc(NCCOCCOCCNc4cccc5c4C(=O)N(C4CCC(=O)NC4=O)C5=O)cc3)sc2c1 (stereo not drawn) | 100 to 500 nM
* CN1C(=O)CCC(N2C(=O)c3cccc(NCCOCCOCCOCCOCCOCCOc4ccc(C(=O)Nc5ccc6oc(-c7ccc(=O)n(C)n7)nc6c5)nc4)c3C2=O)C1=O (stereo not drawn) | < 100 nM
* CC(C)C[C@H](NC(=O)CCCc1ccccc1)C(=O)NCCOCCOCCOc1ccc(COc2ccc3oc(-c4ccc(=O)n(C)n4)nc3c2)nc1 | < 100 nM
* CC(C)C[C@H](NC(=O)[C@@H](O)[C@H](N)Cc1ccccc1)C(=O)NCCOCCOCCOCCOc1ccc(C(=O)Nc2ccc3oc(-c4ccc(=O)n(C)n4)nc3c2)nc1 | < 100 nM
* CC(C)C[C@H](NC(=O)[C@@H](O)[C@H](N)Cc1ccccc1)C(=O)NCCOCCOCCNc1ccc(NC(=O)c2ccn3c(n2)nc2ccccc23)cn1 [Compound 60, formate] | < 100 nM
* COc1ccc(C(=O)Nc2ccc3oc(-c4ccc(=O)n(CCOCCOCCNC(=O)[C@H](CC(C)C)NC(=O)[C@@H](O)[C@H](N)Cc5ccccc5)n4)nc3c2)nc1 | < 100 nM
* Cc1ncsc1-c1ccc(CNC(=O)[C@H]2C[C@H](O)CN2C(=O)[C@H](NC(=O)COCCOc2ccc(C(=O)Nc3ccc4oc(-c5ccc(=O)n(C)n5)nc4c3)nc2)C(C)(C)C)cc1 | < 100 nM

###

- Target system: pre-formed polyQ46 or Exon1-polyQ46 aggregates (mHTT) (Homo sapiens, UniProt P42858, INS38QQQQQQQQQQQQQQQQQQQQQQQQQ)
- Test details: Q46_RBA radioligand binding assay (displacement of [3H]-radioligand)
pIC50: −log10 of the molar value.
Reported endpoint: pIC50

- Cc1ncsc1-c1ccc(CNC(=O)[C@@H]2C[C@@H](O)CN2C(=O)[C@@H](NC(=O)CCOCCOCCOCCOCCOCCOCCOCCOCCOc2ccc(C(=O)Nc3ccc4oc(-c5ccc(=O)n(C)n5)nc4c3)nc2)C(C)(C)C)cc1 [Compound 25]: 6.30 to 7.00
- Cc1ncsc1-c1ccc(CNC(=O)[C@@H]2C[C@@H](O)CN2C(=O)[C@@H](NC(=O)COCCOCCOc2ccc(COc3ccc4oc(-c5ccc(=O)n(C)n5)nc4c3)nc2)C(C)(C)C)cc1 [Compound 47]: > 7.00
- CNc1c(-c2cn3c(n2)sc2cc(OCCOCCOCCOc4cc(-c5scnc5C)ccc4CNC(=O)[C@@H]4C[C@@H](O)CN4C(=O)[C@H](C(C)C)N4Cc5ccccc5C4=O)ccc23)nc2cc(C#N)ccn12 [Compound 7]: 6.30 to 7.00
- CNc1c(-c2cn3c(n2)sc2cc(OCCOCCOCCOCC(=O)N[C@H](C(=O)N4C[C@H](O)C[C@H]4C(=O)NCc4ccc(-c5scnc5C)cc4)C(C)(C)C)ccc23)nc2cc(C#N)ccn12 [Compound 3]: > 7.00
- Cn1nc(-c2nc3cc(OCc4ccc(OCCOCCOCCNc5cccc6c5C(=O)N(C5CCC(=O)NC5=O)C6=O)cn4)ccc3o2)ccc1=O (stereo not shown) [Compound 31]: > 7.00
- Cc1ncsc1-c1ccc(CNC(=O)[C@@H]2C[C@@H](O)CN2C(=O)[C@@H](NC(=O)CCOCCOCCOCCOc2ccc(C(=O)Nc3ccc4oc(-c5ccc(=O)n(C)n5)nc4c3)nc2)C(C)(C)C)cc1 [Compound 23]: > 7.00
- Cc1ncsc1-c1ccc(CNC(=O)[C@@H]2C[C@@H](O)CN2C(=O)[C@@H](NC(=O)COCCOc2ccc(C(=O)Nc3ccc4oc(-c5ccc(=O)n(C)n5)nc4c3)nc2)C(C)(C)C)cc1 [Compound 29]: > 7.00
- CNc1c(-c2cn3c(n2)sc2cc(OCCOCCOCC(=O)N[C@H](C(=O)N4C[C@H](O)C[C@H]4C(=O)NCc4ccc(-c5scnc5C)cc4)C(C)(C)C)ccc23)nc2cc(C#N)ccn12 [Compound 2]: > 7.00
- Cc1ncsc1-c1ccc(CNC(=O)[C@@H]2C[C@@H](O)CN2C(=O)[C@@H](NC(=O)CCOCCOCCOc2ccc(C(=O)Nc3ccc4oc(-c5ccc(=O)n(C)n5)nc4c3)nc2)C(C)(C)C)cc1 [Compound 22]: > 7.00
- Cc1ncsc1-c1ccc(CNC(=O)[C@@H]2C[C@@H](O)CN2C(=O)[C@H](C(C)C)N2Cc3ccccc3C2=O)c(OCCOCCOCCOc2ccc(COc3ccc4oc(-c5ccc(=O)n(C)n5)nc4c3)nc2)c1 [Compound 45]: 6.30 to 7.00
- Cc1ncsc1-c1ccc(CNC(=O)[C@H]2C[C@H](O)CN2C(=O)[C@H](NC(=O)COCCOCCOc2ccc(COc3ccc4oc(-c5ccc(=O)n(C)n5)nc4c3)nc2)C(C)(C)C)cc1 [Compound 48]: > 7.00
- CC(C)C[C@H](NC(=O)[C@@H](O)[C@H](N)Cc1ccccc1)C(=O)NCCOCCOCCOc1ccc(NC(=O)c2ccn3c(n2)nc2ccccc23)cn1 [Compound 59]: > 7.00
- Cc1ncsc1-c1ccc(CNC(=O)[C@@H]2C[C@@H](O)CN2C(=O)[C@@H](NC(=O)COCCOCCOCCOCCOc2ccc(COc3ccc4oc(N5CCNCC5)nc4c3)nc2)C(C)(C)C)cc1 [Compound 54]: < 6.30
- Cc1ncsc1-c1ccc(CNC(=O)[C@@H]2C[C@@H](O)CN2C(=O)[C@@H](NC(=O)COCCOCCOCCOCCOc2ccc(COc3ccc4oc(N5CCn6ccnc6C5)nc4c3)nc2)C(C)(C)C)cc1 [Compound 57]: > 7.00
- CNc1c(-c2cn3c(n2)sc2cc(OCCOc4cc(-c5scnc5C)ccc4CNC(=O)[C@@H]4C[C@@H](O)CN4C(=O)[C@H](C(C)C)N4Cc5ccccc5C4=O)ccc23)nc2cc(C#N)ccn12 [Compound 5]: 6.30 to 7.00
- Cc1ncsc1-c1ccc(CNC(=O)[C@@H]2C[C@@H](O)CN2C(=O)[C@H](C(C)C)N2Cc3ccccc3C2=O)c(OCCOc2ccc(COc3ccc4oc(-c5ccc(=O)n(C)n5)nc4c3)nc2)c1 [Compound 43]: > 7.00
- CC(C)C[C@H](NC(=O)[C@@H](O)[C@H](N)Cc1ccccc1)C(=O)NCCOCCOCCOCCOc1ccc(C(=O)Nc2ccc3oc(-c4cccnc4)nc3c2)nc1 [Compound 62]: > 7.00
- Cc1ncsc1-c1ccc(CNC(=O)[C@H]2C[C@H](O)CN2C(=O)[C@H](NC(=O)CCOCCOCCOCCOCCOCCOc2ccc(C(=O)Nc3ccc4oc(-c5ccc(=O)n(C)n5)nc4c3)nc2)C(C)(C)C)cc1 [Compound 41]: > 7.00
- Cc1ncsc1-c1ccc(CNC(=O)[C@@H]2C[C@@H](O)CN2C(=O)[C@@H](NC(=O)COCCOCCOCCOc2ccc(COc3ccc4oc(N5CCn6ccnc6C5)nc4c3)nc2)C(C)(C)C)cc1 [Compound 58]: 6.30 to 7.00
